# assaySystem: CYP3A4 (Homo sapiens)
# Construct: from tissue; host or cells: human liver microsomes
# Sequence (P08684 whole entry): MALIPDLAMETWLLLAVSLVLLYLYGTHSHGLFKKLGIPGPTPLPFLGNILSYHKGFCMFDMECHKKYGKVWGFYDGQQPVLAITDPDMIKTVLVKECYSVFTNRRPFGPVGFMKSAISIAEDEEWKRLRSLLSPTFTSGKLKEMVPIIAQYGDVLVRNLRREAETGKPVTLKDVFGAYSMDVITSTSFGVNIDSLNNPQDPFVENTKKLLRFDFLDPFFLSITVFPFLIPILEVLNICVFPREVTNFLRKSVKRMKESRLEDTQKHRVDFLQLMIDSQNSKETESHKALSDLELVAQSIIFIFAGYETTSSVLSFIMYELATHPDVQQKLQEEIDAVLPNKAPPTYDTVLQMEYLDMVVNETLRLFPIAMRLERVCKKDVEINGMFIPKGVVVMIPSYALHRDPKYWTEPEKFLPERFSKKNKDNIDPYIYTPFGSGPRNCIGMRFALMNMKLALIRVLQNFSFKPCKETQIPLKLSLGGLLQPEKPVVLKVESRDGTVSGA
# methodDescription: Inhibition of human liver microsomal CYP3A4
# Type: in vitro ADME
# experimentalContext: probe Midazolam; human liver microsomes, 10 μM test substance, substrate Midazolam; read-out: Relative inhibition rate (%) CYP3A4 (Midazolam)
metricName: inhibition at 10 µM

>>> print(df.to_string())
                                   compound  result
0  CCCC[C@](C)(CO)Nc1nc(N)nc2cc(-c3cc(=O)n(C)cc3CN(C)CCO)ccc12 [Example 64]   17.6%
1  CCCC[C@](C)(CO)Nc1nc(N)nc2cc(-c3cc(=O)[nH]cc3CN(C)C)cnc12 [Example 50]   13.7%
2  CCCC[C@](C)(CO)Nc1nc(N)nc2cc(-c3cc(=O)n(C)cc3CN(C)CCOC)ccc12 [Example 55]   38.6%
